# TESTED ON: Estrogen receptor (Homo sapiens)
# ASSAY TEXT: Agonist activity at ER-alpha (unknown origin) transfected in HEK293T cells assessed as stimulation of transcriptional activity after 24 hrs by luciferase reporter gene assay relative to 17-beta estradiol
# Format: cell-based
# ASSAY CONTEXT: HEK-293T
RESULT TYPE: Efficacy (%)

Consider the worked cases shown below.
compound="Cc1cccc(OS(=O)(=O)C2CC3OC2C(c2ccc(NC(=O)CCCCCCC(=O)NO)cc2)=C3c2ccc(O)cc2)c1 (racemic)" result_type=Efficacy unit_spec=% assay_result=38
compound="Cc1ccccc1OS(=O)(=O)C1CC2OC1C(c1ccc(NC(=O)CCCCCCC(=O)NO)cc1)=C2c1ccc(O)cc1 (racemic)" result_type=Efficacy unit_spec=% assay_result=-20
compound="O=C(CCCCCCC(=O)Nc1ccc(OS(=O)(=O)C2CC3OC2C(c2ccc(O)cc2)=C3c2ccc(O)cc2)cc1)NO (configuration not stated)" result_type=Efficacy unit_spec=% assay_result=-15

A = O=C(O)CCCCCCC(=O)Nc1ccc(C2=C(c3ccc(O)cc3)C3CC(S(=O)(=O)Oc4ccc5ccccc5c4)C2O3)cc1 (configuration not stated)
B = O=C(O)CCCCCCC(=O)Nc1ccc(OS(=O)(=O)C2CC3OC2C(c2ccc(O)cc2)=C3c2ccc(O)cc2)cc1 (configuration not stated)
C = O=C(CCCCCCC(=O)Nc1ccc(C2=C(c3ccc(O)cc3)C3CC(S(=O)(=O)Oc4ccc(Br)cc4)C2O3)cc1)NO (racemic)
D = O=C(O)CCCCCCC(=O)Nc1cccc(OS(=O)(=O)C2CC3OC2C(c2ccc(O)cc2)=C3c2ccc(O)cc2)c1 (configuration not stated)
Request: Hey, quick one: sort these by Efficacy, low to high? Rank them, then answer with their labels in that order.
Result: A, B, C, D
(A: -21%, B: -10%, C: 33%, D: 51%)

###

# TESTED ON: UniProtKB P03372
# ASSAY TEXT: Antagonist activity at ER-alpha (unknown origin) transfected in HEK293T cells assessed as inhibition of transcriptional activity after 24 hrs by luciferase reporter gene assay relative to 17-beta estradiol
# Format: cell-based
# ASSAY CONTEXT: HEK-293T
RESULT TYPE: Efficacy (%)

Consider the worked cases shown below.
compound="O=C(CCCCCCC(=O)Nc1ccc(C2=C(c3ccc(O)cc3)C3CC(S(=O)(=O)Oc4ccc5ccccc5c4)C2O3)cc1)NO (centres undefined)" tested_on="UniProtKB P03372" result_type=Efficacy assay_result=-26
compound="COc1ccccc1OS(=O)(=O)C1CC2OC1C(c1ccc(NC(=O)CCCCCCC(=O)NO)cc1)=C2c1ccc(O)cc1 (racemic)" tested_on="UniProtKB P03372" result_type=Efficacy assay_result=164
compound="Cc1ccccc1OS(=O)(=O)C1CC2OC1C(c1ccc(NC(=O)CCCCCCC(=O)O)cc1)=C2c1ccc(O)cc1 (racemic)" tested_on="UniProtKB P03372" result_type=Efficacy assay_result=43

I = O=C(O)CCCCCCC(=O)Nc1ccc(C2=C(c3ccc(O)cc3)C3CC(S(=O)(=O)Oc4ccccc4O)C2O3)cc1 (racemic)
II = O=C(O)CCCCCCC(=O)Nc1ccc(C2=C(c3ccc(O)cc3)C3CC(S(=O)(=O)Oc4cccc5ccccc45)C2O3)cc1 (centres undefined)
III = O=C(CCCCCCC(=O)Nc1ccc(C2=C(c3ccc(O)cc3)C3CC(S(=O)(=O)Oc4cccc5ccccc45)C2O3)cc1)NO (racemic)
IV = O=C(O)CCCCCCC(=O)Nc1ccc(C2=C(c3ccc(O)cc3)C3CC(S(=O)(=O)Oc4ccccc4C(F)(F)F)C2O3)cc1 (racemic)
V = O=C(CCCCCCC(=O)Nc1ccc(C2=C(c3ccc(O)cc3)C3CC(S(=O)(=O)Oc4ccc(F)cc4)C2O3)cc1)NO (racemic)
Request: List these items ordered by Efficacy, big to small. Rank them, then answer with their labels in that order.
Result: V, III, IV, I, II

I = COC(=O)CCCCCCC(=O)Nc1ccc(OS(=O)(=O)C2CC3OC2C(c2ccc(O)cc2)=C3c2ccc(O)cc2)cc1 (centres undefined)
II = O=C(O)CCCCCCC(=O)Nc1ccc(C2=C(c3ccc(O)cc3)C3CC(S(=O)(=O)Oc4cccc(O)c4)C2O3)cc1 (racemic)
Request: Hey, which is lower on measured Efficacy, I or II ? Your answer should be the label of the entry you select.
Result: I
(I: 10%, II: 108%)

a = O=C(O)CCCCCCC(=O)Nc1ccc(C2=C(c3ccc(O)cc3)C3CC(S(=O)(=O)Oc4ccc(O)cc4)C2O3)cc1 (racemic)
b = O=C(O)CCCCCCC(=O)Nc1ccc(OS(=O)(=O)C2CC3OC2C(c2ccc(O)cc2)=C3c2ccc(O)cc2)cc1 (centres undefined)
c = O=C(O)CCCCCCC(=O)Nc1ccc(C2=C(c3ccc(O)cc3)C3CC(S(=O)(=O)Oc4ccc(C(F)(F)F)cc4)C2O3)cc1 (racemic)
Request: List these items ordered by Efficacy, big to small. Rank them, then answer with their labels in that order.
Result: a, b, c
(a: 99%, b: 25%, c: 10%)

###

# TESTED ON: Estrogen receptor beta (Homo sapiens)
# ASSAY TEXT: Agonist activity at ER-beta (unknown origin) transfected in HEK293T cells assessed as stimulation of transcriptional activity after 24 hrs by luciferase reporter gene assay relative to 17-beta estradiol
# Assay type: cell-based
# ASSAY CONTEXT: HEK-293T
RESULT TYPE: Efficacy (%)

compound="COC(=O)CCCCCCC(=O)Nc1ccc(OS(=O)(=O)C2CC3OC2C(c2ccc(O)cc2)=C3c2ccc(O)cc2)cc1 (centres undefined)" unit_spec=% assay_result=4

P = O=C(O)CCCCCCC(=O)Nc1ccc(C2=C(c3ccc(O)cc3)C3CC(S(=O)(=O)Oc4ccc(O)cc4)C2O3)cc1 (racemic)
Q = O=C(O)CCCCCCC(=O)Nc1ccc(C2=C(c3ccc(O)cc3)C3CC(S(=O)(=O)Oc4ccccc4C(F)(F)F)C2O3)cc1 (racemic)
Request: Hey, which is lower on measured Efficacy, P or Q ? Your answer should be the label of the entry you select.
Result: Q
(Q: 10%, P: 69%)

###

# Tested on: DU-145
# ASSAY TEXT: cells
# Type: functional, cell-based
# ASSAY CONTEXT: Homo sapiens, DU-145, 72 h
pIC50: −log10 of the molar value.
RESULT TYPE: pIC50

compound="O=C(CCCCCCC(=O)Nc1ccc(C2=C(c3ccc(O)cc3)C3CC(S(=O)(=O)Oc4ccc(F)cc4)C2O3)cc1)NO (racemic)" tested_on=DU-145 assay_result=4.33

a = Cc1ccccc1OS(=O)(=O)C1CC2OC1C(c1ccc(NC(=O)CCCCCCC(=O)NO)cc1)=C2c1ccc(O)cc1 (racemic)
b = O=C(CCCCCCC(=O)Nc1ccc(C2=C(c3ccc(O)cc3)C3CC(S(=O)(=O)Oc4ccc5ccccc5c4)C2O3)cc1)NO (stereo not given)
Request: Hey, which is lower on measured pIC50, a or b ? Your answer should be the label of the entry you select.
Result: a
(a: 4.51, b: 4.91)

###

# TESTED ON: Estrogen receptor (Homo sapiens) (UniProt P03372)
# Sequence (P03372 whole entry): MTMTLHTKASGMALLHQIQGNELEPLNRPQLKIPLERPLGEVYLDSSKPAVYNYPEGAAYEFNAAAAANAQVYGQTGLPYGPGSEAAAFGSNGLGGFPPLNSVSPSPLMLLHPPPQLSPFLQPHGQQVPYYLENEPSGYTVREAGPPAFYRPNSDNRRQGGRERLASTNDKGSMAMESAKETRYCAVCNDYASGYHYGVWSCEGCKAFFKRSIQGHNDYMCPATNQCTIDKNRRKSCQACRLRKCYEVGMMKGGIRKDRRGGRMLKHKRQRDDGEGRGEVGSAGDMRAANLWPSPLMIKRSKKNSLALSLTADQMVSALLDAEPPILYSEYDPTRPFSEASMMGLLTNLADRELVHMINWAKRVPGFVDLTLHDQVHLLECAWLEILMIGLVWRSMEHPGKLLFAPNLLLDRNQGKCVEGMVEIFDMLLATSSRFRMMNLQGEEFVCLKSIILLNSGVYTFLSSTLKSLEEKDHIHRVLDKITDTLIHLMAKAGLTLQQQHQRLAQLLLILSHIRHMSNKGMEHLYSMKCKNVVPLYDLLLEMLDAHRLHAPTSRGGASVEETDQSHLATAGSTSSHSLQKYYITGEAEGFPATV
# ASSAY TEXT: Agonist activity at ER-alpha (unknown origin) transfected in HEK293T cells assessed as stimulation of transcriptional activity after 24 hrs by luciferase reporter gene assay relative to 17-beta estradiol
# Assay type: cell-based
# ASSAY CONTEXT: HEK-293T
RESULT TYPE: Efficacy (%)

compound="COc1cccc(OS(=O)(=O)C2CC3OC2C(c2ccc(NC(=O)CCCCCCC(=O)O)cc2)=C3c2ccc(O)cc2)c1 (racemic)" tested_on="Estrogen receptor (Homo sapiens) (UniProt P03372)" result_type=Efficacy assay_result=67

I = COc1ccccc1OS(=O)(=O)C1CC2OC1C(c1ccc(NC(=O)CCCCCCC(=O)O)cc1)=C2c1ccc(O)cc1 (racemic)
II = O=C(O)CCCCCCC(=O)Nc1ccc(C2=C(c3ccc(O)cc3)C3CC(S(=O)(=O)Oc4ccccc4)C2O3)cc1 (racemic)
Request: Which shows the larger Efficacy value: I or II ? Your answer should be the label of the entry you select.
Result: I
(I: 84%, II: -13%)

###

# TESTED ON: Estrogen receptor beta (Homo sapiens, UniProt Q92731)
# Sequence (Q92731 whole entry): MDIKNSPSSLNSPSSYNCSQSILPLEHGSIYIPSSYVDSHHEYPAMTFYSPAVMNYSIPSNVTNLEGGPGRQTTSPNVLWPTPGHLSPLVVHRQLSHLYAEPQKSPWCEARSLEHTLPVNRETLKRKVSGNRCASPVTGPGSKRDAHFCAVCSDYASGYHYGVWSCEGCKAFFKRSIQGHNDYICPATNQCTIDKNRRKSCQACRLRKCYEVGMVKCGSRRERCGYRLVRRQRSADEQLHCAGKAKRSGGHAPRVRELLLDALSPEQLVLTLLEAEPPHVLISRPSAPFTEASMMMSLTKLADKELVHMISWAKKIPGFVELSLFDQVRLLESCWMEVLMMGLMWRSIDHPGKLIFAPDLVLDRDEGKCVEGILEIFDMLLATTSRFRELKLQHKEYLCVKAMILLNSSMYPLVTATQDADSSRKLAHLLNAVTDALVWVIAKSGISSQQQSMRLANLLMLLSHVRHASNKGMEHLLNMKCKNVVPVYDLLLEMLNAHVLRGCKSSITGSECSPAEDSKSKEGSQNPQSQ
# ASSAY TEXT: Agonist activity at ER-beta (unknown origin) transfected in HEK293T cells assessed as stimulation of transcriptional activity after 24 hrs by luciferase reporter gene assay
pEC50: −log10 of the molar value.
RESULT TYPE: pEC50

compound="O=C(CCCCCCC(=O)Nc1ccc(C2=C(c3ccc(O)cc3)C3CC(S(=O)(=O)Oc4ccc(F)cc4)C2O3)cc1)NO (racemic)" assay_result=8.70

A = COc1cccc(OS(=O)(=O)C2CC3OC2C(c2ccc(NC(=O)CCCCCCC(=O)O)cc2)=C3c2ccc(O)cc2)c1 (racemic)
B = Cc1ccccc1OS(=O)(=O)C1CC2OC1C(c1ccc(NC(=O)CCCCCCC(=O)NO)cc1)=C2c1ccc(O)cc1 (racemic)
C = O=C(O)CCCCCCC(=O)Nc1ccc(C2=C(c3ccc(O)cc3)C3CC(S(=O)(=O)Oc4ccc5ccccc5c4)C2O3)cc1 (configuration not stated)
Request: List these items ordered by pEC50, big to small. Rank them, then answer with their labels in that order.
Result: B, C, A

A = Cc1ccccc1OS(=O)(=O)C1CC2OC1C(c1ccc(NC(=O)CCCCCCC(=O)O)cc1)=C2c1ccc(O)cc1 (racemic)
B = O=C(CCCCCCC(=O)Nc1ccc(C2=C(c3ccc(O)cc3)C3CC(S(=O)(=O)Oc4ccc(Br)cc4)C2O3)cc1)NO (racemic)
C = O=C(O)CCCCCCC(=O)Nc1cccc(OS(=O)(=O)C2CC3OC2C(c2ccc(O)cc2)=C3c2ccc(O)cc2)c1 (configuration not stated)
Request: List these items ordered by pEC50, big to small. Rank them, then answer with their labels in that order.
Result: B, A, C
(B: 6.76, A: 6.42, C: 5.68)
